# Tested on: CCRF-CEM leukemia cells
# Test summary: Resazurin reduction assay (RRA) cytotoxicity, CCRF-CEM
# Details: Homo sapiens, 72 h
So basically, if IC50 comes in under 10 µM it's true, and if it's 10 µM or more it's false.

[
  {
    "Compound": "COc1c(-c2ccc(O)cc2)oc2c(C)c(O)c(C)c(O)c2c1=O",
    "Classification": "true"
  },
  {
    "Compound": "COc1c(C)c(O)c2c(=O)c(OC)c(-c3ccc(O)cc3)oc2c1C",
    "Classification": "true"
  },
  {
    "Compound": "COc1cc2oc(-c3ccc(O)c(O)c3)c(OC)c(=O)c2c(O)c1C",
    "Classification": "false"
  },
  {
    "Compound": "C[C@@H]1OC(Oc2c(-c3ccc(O)c(O)c3)oc3cc(O)cc(O)c3c2=O)[C@H](O)[C@H](O)[C@H]1O (stereo partly drawn) [Compound 5, quercetin-3-O-L-rhamnopyranoside]",
    "Classification": "true"
  },
  {
    "Compound": "CCC(CCC(C)C1CCC2C3CC=C4CC(OC5OC(CO)C(O)C(O)C5O)CCC4(C)C3CCC12C)C(C)C [Compound 10, 3-O-β-D-glucopyranoside of β-sitosterol]",
    "Classification": "false"
  }
]

# strict comparison: is reported IC50 < 10 µM? input = COc1ccc(-c2oc3cc(O)c(C)c(O)c3c(=O)c2OC)cc1O
false

----------
# Tested on: CCRF-CEM leukemia cells
# Test summary: Resazurin reduction assay (RRA) cytotoxicity, CCRF-CEM
# Details: Homo sapiens, 72 h
Below is a list of entries, each paired with its recorded IC50 value.
State the answer as a number, implicitly in µM.

[
  {
    "Molecule": "O=c1c(O[C@@H]2O[C@H](CO)[C@@H](O)[C@H](O)[C@H]2O)c(-c2ccc(O)c(O)c2)oc2cc(O)cc(O)c12 [Compound 6, quercetin-3-O-β-glucopyranoside]",
    "Result type": "IC50",
    "Reported value": 9.12
  }
]

May I ask what IC50 has been recorded for COc1cccc2c1C(=O)c1c(O)c3c(c(O)c1C2=O)C[C@@](O)(C(=O)CO)C[C@@H]3O[C@H]1C[C@H](N)[C@H](O)[C@H](C)O1 [Doxorubicin, doxorubicin, reference compound] ?
0.02

Another molecule: COc1cc(-c2oc3cc(OC)c(C)c(O)c3c(=O)c2OC)ccc1O
17.9

----------
Result type: melting point

[
  {
    "Compound": "COc1cc2oc(-c3ccc(O)c(O)c3)c(OC)c(=O)c2c(O)c1C [Compound 2, 6-C-methylquercetin-3,7-dimethyl ether]",
    "Reported value": "195 to 197 °C"
  },
  {
    "Compound": "COc1cc(-c2oc3cc(OC)c(C)c(O)c3c(=O)c2OC)ccc1O [Compound 3]",
    "Reported value": "185 to 187 °C"
  },
  {
    "Compound": "COc1ccc(-c2oc3cc(O)c(C)c(O)c3c(=O)c2OC)cc1O [Compound 1, 6-C-methylquercetin-3, 4'-dimethyl ether]",
    "Reported value": "195 to 197 °C"
  },
  {
    "Compound": "COc1c(C)c(O)c2c(=O)c(OC)c(-c3ccc(O)cc3)oc2c1C [Compound 7]",
    "Reported value": "285 to 287 °C"
  }
]

May I ask what melting point has been recorded for COc1c(-c2ccc(O)cc2)oc2c(C)c(O)c(C)c(O)c2c1=O [Compound 8, 6,8-C-dimethylkaempferol-3-methyl ether] ?
250 to 253 °C

----------
# System: normal AML12 hepatocytes
# Test summary: RRA cytotoxicity, normal AML12 hepatocytes
# Details: IC50 in AML12 versus IC50 in HepG2
Result type: Selectivity index

// known answers, use as guide
[
  {
    "Compound": "COc1c(C)c(O)c2c(=O)c(OC)c(-c3ccc(O)cc3)oc2c1C",
    "Selectivity index": "> 1.63"
  },
  {
    "Compound": "COc1ccc(-c2oc3cc(O)c(C)c(O)c3c(=O)c2OC)cc1O",
    "Selectivity index": "> 2.13"
  }
]

May I ask what Selectivity index has been recorded for C[C@@H]1OC(Oc2c(-c3ccc(O)c(O)c3)oc3cc(O)cc(O)c3c2=O)[C@H](O)[C@H](O)[C@H]1O (stereo partly drawn) [Compound 5, quercetin-3-O-L-rhamnopyranoside] ?
> 1.77

----------
# Tested on: HCT116 p53^−/− cells
# Test summary: RRA cytotoxicity, HCT116 p53^−/−
# Details: IC50 HCT116 p53^−/− versus HCT116 p53^+/+
Result type: Degree of resistance

May I ask what Degree of resistance has been recorded for O=c1c(O[C@@H]2O[C@H](CO)[C@@H](O)[C@H](O)[C@H]2O)c(-c2ccc(O)c(O)c2)oc2cc(O)cc(O)c12 [Compound 6, quercetin-3-O-β-glucopyranoside] ?
0.57

Another compound: COc1cccc2c1C(=O)c1c(O)c3c(c(O)c1C2=O)C[C@@](O)(C(=O)CO)C[C@@H]3O[C@H]1C[C@H](N)[C@H](O)[C@H](C)O1 [Doxorubicin, doxorubicin, reference compound]
3.73

Another compound: COc1c(C)c(O)c2c(=O)c(OC)c(-c3ccc(O)cc3)oc2c1C
0.50

Another compound: C[C@@H]1OC(Oc2c(-c3ccc(O)c(O)c3)oc3cc(O)cc(O)c3c2=O)[C@H](O)[C@H](O)[C@H]1O (stereo partly drawn) [Compound 5, quercetin-3-O-L-rhamnopyranoside]
0.73

Another compound: COc1cc(-c2oc3cc(OC)c(C)c(O)c3c(=O)c2OC)ccc1O
0.87

----------
# Tested on: HCT116 p53^−/− cells
# Test summary: RRA cytotoxicity, HCT116 p53^−/−
# Details: IC50 HCT116 p53^−/− versus HCT116 p53^+/+
Result type: Degree of resistance
Number only, no unit.

// known answers, use as guide
[
  {
    "Compound": "COc1c(-c2ccc(O)cc2)oc2c(C)c(O)c(C)c(O)c2c1=O [Compound 8, 6,8-C-dimethylkaempferol-3-methyl ether]",
    "Reported value": 0.36
  },
  {
    "Compound": "COc1cc2oc(-c3ccc(O)c(O)c3)c(OC)c(=O)c2c(O)c1C [Compound 2, 6-C-methylquercetin-3,7-dimethyl ether]",
    "Reported value": 0.75
  }
]

May I ask what Degree of resistance has been recorded for COc1ccc(-c2oc3cc(O)c(C)c(O)c3c(=O)c2OC)cc1O [Compound 1, 6-C-methylquercetin-3, 4'-dimethyl ether] ?
0.51
